B1: IKZF1 (parent)
chain: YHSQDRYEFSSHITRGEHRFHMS

- Variants of: B1
- Test Method Notes: protein stability index of a GFP-peptide fusion (GPS, HEK-293T) (PSI 1-6); higher = more stable;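 further: lentivirally expressed fusions sorted by FACS into six bins by GFP to DsRed ratio, PSI derived from sequencing read proportions per bin multiplied by bin number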
- Condition Context: c terminus: native
Entries annotated with measured protein stability index
No unit in the answer, please; the number alone is enough.

Known protein stability index results, listed for orientation:
Item Sequence	protein stability index
YHSQDCYEFSSHITRGEHRFHMS [R6C]	2.84
YHSQDRYEFSSHITRGEHRPHMS [F20P]	1.59
YHSQDRHEFSSHITRGEHRFHMS [Y7H]	1.49
YHYQDRYEFSSHITRGEHRFHMS [S3Y]	1.63
YHSQDRYEFSSHITRGQHRFHMS [E17Q]	2.48

Query string: What value of measured protein stability index is listed for YHSQRRYEFSSHITRGEHRFHMS [D5R] ?
Result string: 1.61

Query string: Which measured protein stability index value corresponds to YHSQDRYEFSSHITRGEHRFPMS [H21P] ?
Result string: 1.89

Query string: Return reported protein stability index; argument: YHSQDRYEFSSHITRVEHRFHMS [G16V]
Result string: 1.35

Query string: What value of protein stability index has been reported for the following variant? YHSQDRYEFSSHITRGCHRFHMS [E17C]
Result string: 3.05

Query string: Find the recorded protein stability index belonging to YHSQDRYEFSSHITRGEHRFHKS [M22K] and report it.
Result string: 1.46

Query string: Quick one: protein stability index of YHSQDRTEFSSHITRGEHRFHMS [Y7T] ?
Result string: 1.85

Query string: Entry YHSQDRYEFSSHICRGEHRFHMS [T14C] has what protein stability index?
Result string: 1.58

Query string: Field request: protein stability index | item: YHSQDRYEFSSHITRPEHRFHMS [G16P]
Result string: 2.01

Query string: State the recorded protein stability index for this entry: YHKQDRYEFSSHITRGEHRFHMS [S3K]
Result string: 2.33

Query string: I have this variant here, YHSQDHYEFSSHITRGEHRFHMS [R6H] , and I need its recorded protein stability index.
Result string: 1.8

Query string: What value of protein stability index has been reported for the following variant? YHSQDRYEFSSHITGGEHRFHMS [R15G]
Result string: 1.87
